From: ChEMBL document CHEMBL1921774

Please provide measured Ki for the entries that follow.
Target: D(4) dopamine receptor (Homo sapiens, UniProt P21917)
Sequence (P21917 whole entry): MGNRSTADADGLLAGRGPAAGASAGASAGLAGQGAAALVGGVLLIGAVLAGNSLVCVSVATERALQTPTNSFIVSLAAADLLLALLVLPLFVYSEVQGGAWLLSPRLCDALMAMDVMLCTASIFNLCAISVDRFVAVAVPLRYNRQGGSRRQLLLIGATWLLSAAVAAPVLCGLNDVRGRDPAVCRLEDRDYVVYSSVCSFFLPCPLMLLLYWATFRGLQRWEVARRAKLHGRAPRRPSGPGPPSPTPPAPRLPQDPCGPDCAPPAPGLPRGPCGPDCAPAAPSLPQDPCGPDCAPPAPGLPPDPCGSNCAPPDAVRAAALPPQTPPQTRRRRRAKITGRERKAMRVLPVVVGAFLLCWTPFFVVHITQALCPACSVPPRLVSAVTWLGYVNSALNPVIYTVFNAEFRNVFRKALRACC
Give bare numbers, in nM.

// batch mode: one Ki value per listed entry
1. COc1cc(CN2CCN(c3ccc4c(c3)OCCO4)CC2)ccc1F
2. Fc1ccc(CN2CCN(c3ccc4c(c3)OCCO4)CC2)cn1
3. Oc1cc(CN2CCN(c3ccc4c(c3)OCCO4)CC2)ccc1F
4. Fc1ccc(CN2CCN(c3ccc4c(c3)OCCO4)CC2)cc1

Output:
4.2
15
7.3
1.1
